EC50 hC3 cleavage values for the binders below.
molecular target: plasma purified human complement protein C3 (human) (UniProt P01024); assay: cell-based or functional assay
Sequence (P01024 23-667, chain 1 of 2): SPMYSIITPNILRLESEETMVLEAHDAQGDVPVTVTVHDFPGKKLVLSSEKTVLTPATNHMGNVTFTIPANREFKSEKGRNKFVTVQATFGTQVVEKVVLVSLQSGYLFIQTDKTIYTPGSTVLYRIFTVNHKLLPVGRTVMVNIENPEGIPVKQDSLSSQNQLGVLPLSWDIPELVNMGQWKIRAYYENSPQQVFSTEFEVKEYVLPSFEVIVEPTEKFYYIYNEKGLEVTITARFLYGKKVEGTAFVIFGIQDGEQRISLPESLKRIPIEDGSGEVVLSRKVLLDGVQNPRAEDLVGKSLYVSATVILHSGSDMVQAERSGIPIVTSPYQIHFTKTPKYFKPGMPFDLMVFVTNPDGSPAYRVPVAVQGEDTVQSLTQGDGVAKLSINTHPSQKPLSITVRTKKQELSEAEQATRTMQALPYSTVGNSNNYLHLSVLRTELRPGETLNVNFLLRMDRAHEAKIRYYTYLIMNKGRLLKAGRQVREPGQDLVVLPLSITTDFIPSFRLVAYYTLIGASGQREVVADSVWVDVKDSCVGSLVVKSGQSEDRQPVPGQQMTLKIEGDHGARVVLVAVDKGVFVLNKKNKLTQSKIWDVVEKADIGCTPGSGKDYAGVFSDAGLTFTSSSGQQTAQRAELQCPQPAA
Sequence (P01024 672-1663, chain 2 of 2): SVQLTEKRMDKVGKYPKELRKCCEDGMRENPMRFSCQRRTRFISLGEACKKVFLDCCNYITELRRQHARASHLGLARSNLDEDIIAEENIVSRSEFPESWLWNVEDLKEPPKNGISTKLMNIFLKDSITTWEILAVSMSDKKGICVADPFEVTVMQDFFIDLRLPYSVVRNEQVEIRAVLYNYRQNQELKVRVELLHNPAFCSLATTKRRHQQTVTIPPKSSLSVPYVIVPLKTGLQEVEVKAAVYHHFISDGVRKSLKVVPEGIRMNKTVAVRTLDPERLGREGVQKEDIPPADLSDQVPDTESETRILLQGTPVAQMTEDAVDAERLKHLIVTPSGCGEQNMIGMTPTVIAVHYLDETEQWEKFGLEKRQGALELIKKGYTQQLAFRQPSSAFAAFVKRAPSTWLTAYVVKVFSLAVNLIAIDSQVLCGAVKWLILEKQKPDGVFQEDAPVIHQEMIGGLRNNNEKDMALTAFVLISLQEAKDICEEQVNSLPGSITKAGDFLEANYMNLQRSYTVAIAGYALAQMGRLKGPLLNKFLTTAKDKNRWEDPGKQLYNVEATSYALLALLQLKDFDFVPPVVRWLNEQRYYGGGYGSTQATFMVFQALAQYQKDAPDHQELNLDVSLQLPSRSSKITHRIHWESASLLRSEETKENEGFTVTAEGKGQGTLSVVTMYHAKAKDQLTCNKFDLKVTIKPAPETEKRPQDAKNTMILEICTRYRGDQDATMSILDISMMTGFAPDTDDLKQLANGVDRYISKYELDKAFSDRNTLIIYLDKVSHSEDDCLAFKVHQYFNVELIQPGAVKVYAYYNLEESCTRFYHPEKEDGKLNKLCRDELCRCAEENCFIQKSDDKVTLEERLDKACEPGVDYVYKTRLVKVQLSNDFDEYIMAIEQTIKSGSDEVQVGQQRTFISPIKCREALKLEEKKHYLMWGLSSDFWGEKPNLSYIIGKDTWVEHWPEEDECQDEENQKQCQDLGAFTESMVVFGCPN
Report only the number, with the unit nM understood.

Exercise: Which EC50 hC3 cleavage is reported for this binder? MTSP-1 protease domain I41A/Y60gW/N95D/D96F/F97G/F99L/C122S/Q175H/Q192A (enzyme) VVGGTDADEGEWPWQVSLHALGQGHACGASLISPNWLVSAAHCYIDDRGFRWSDPTQWTAFLGLHDQSQRSAPGVQERRLKRIISHPFFDFGTLDYDIALLELEKPAEYSSMVRPISLPDASHVFPAGKAIWVTGWGHTQYGGTGALILQKGEIRVINQTTCENLLPQHITPRMMCVGFLSGGVDSCAGDSGGPLSSVEADGRIFQAGVVSWGDGCAQRNKPGVYTRLPLFRDWIKENTGV
Solution: 17.5

Exercise: State the recorded EC50 hC3 cleavage for this entry: MTSP-1 protease domain I41S/ins97aV/C122S/N164D/Q192G/R235H (enzyme) VVGGTDADEGEWPWQVSLHALGQGHSCGASLISPNWLVSAAHCYIDDRGFRYSDPTQWTAFLGLHDQSQRSAPGVQERRLKRIISHPFFNDFVTFDYDIALLELEKPAEYSSMVRPISLPDASHVFPAGKAIWVTGWGHTQYGGTGALILQKGEIRVIDQTTCENLLPQQITPRMMCVGFLSGGVDSCGGDSGGPLSSVEADGRIFQAGVVSWGDGCAQRNKPGVYTRLPLFHDWIKENTGV
Solution: 46.4

Exercise: Look at this binder and give its reported EC50 hC3 cleavage. MTSP-1 protease domain I41S/F97E/F99L/C122S/G151N/Q175G/Q192R/D217A (enzyme) VVGGTDADEGEWPWQVSLHALGQGHSCGASLISPNWLVSAAHCYIDDRGFRYSDPTQWTAFLGLHDQSQRSAPGVQERRLKRIISHPFFNDETLDYDIALLELEKPAEYSSMVRPISLPDASHVFPAGKAIWVTGWGHTQYGGTNALILQKGEIRVINQTTCENLLPQGITPRMMCVGFLSGGVDSCRGDSGGPLSSVEADGRIFQAGVVSWGAGCAQRNKPGVYTRLPLFRDWIKENTGV
Solution: 74.3

Data provenance: patent US20240018502A1
